- SUBJECT OF TEST: T1, LRP1 CR3-5 (human)
- T1 construct: range 852-973; also called L1 CR3-5
- EXPERIMENT: solid-phase assay; OD at the highest ligand concentration as percent of the highest OD of all ligands
MEASURED PROPERTY: % max
In your response, put the unit directly after the numeric value.

Recorded % max for MegaRAP1 d3 (ligand, V175L lies outside the d3 construct; also called RAPv2A d3; RAP v2 d3; not shown: N-terminal hexahistidine and S-peptide tags of pET30(+)a) LDRLRRVSHQGYTTEAKFEEPRVIDLWDLAQSANLTDKELEAFREELKYFKAKIEAHNHYQKQLEIAHEELRHAESVGDGERVSRSREKHALLEGRTKELGYTVKKHLQDLSGRISRAR , please?
4%

Fill in % max for each of the 2 binders listed.
1. MegaRAP1 d3 revertant T213S (ligand, MegaRAP1 d3 with position 213 reverted to wild type; not shown: N-terminal hexahistidine and S-peptide tags of pET30(+)a) LDRLRRVSHQGYSTEAKFEEPRVIDLWDLAQSANLTDKELEAFREELKYFKAKIEAHNHYQKQLEIAHEELRHAESVGDGERVSRSREKHALLEGRTKELGYTVKKHLQDLSGRISRAR
2. MegaRAP1 d3 revertant A256K (ligand, not shown: N-terminal hexahistidine and S-peptide tags of pET30(+)a) LDRLRRVSHQGYTTEAKFEEPRVIDLWDLAQSANLTDKELEAFREELKYFKAKIEKHNHYQKQLEIAHEELRHAESVGDGERVSRSREKHALLEGRTKELGYTVKKHLQDLSGRISRAR

1: 2%; 2: 6%

Would you kindly share the measured % max for RAP d3 forward mutant E217K (ligand, The paragraph gives only the position; the change E217K follows from the mutagenic primers and the MegaRAP1 mutation set; also called single-site RAP d3 mutant at 217; not shown: N-terminal hexahistidine and S-peptide tags of pET30(+)a) LDRLRRVSHQGYSTEAKFEEPRVIDLWDLAQSANLTDKELEAFREELKHFEAKIEKHNHYQKQLEIAHEKLRHAESVGDGERVSRSREKHALLEGRTKELGYTVKKHLQDLSGRISRAR ?
91%
